B1: CDC25B (parent)
chain: KSPIAPCSLDKRVILIFHCEFSSE

Variants of: B1
PROTOCOL_DETAILS: protein stability index of a GFP-peptide fusion (GPS, HEK-293T) (PSI 1-6); higher = more stable;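 also: lentivirally expressed fusions sorted by FACS into six bins by GFP to DsRed ratio, PSI derived from sequencing read proportions per bin multiplied by bin number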
EXPERIMENTAL_CONDITIONS: c terminus: a fixed tail appended
MEASUREMENT_TYPE: protein stability index
In your answer, state the number alone without any accompanying words.

{"columns": ["SEQ_TEXT", "READOUT_VALUE"],
 "data": [
  ["KSPIAPCSLDKRVILIFHCEFSST", 2.44],
  ["KSPIAPCSLDKRVILIFHCGFSSE", 2.81],
  ["KSPIAPTSLDKRVILIFHCEFSSE", 2.55]
]}

Problem: Give a short answer stating reported protein stability index for KSPIAPCSLDKRVVLIFHCEFSSE .
Solution: 2.87

Problem: Give a short answer stating reported protein stability index for KSPIAPCSLDKRYILIFHCEFSSE .
Solution: 2.97
